Provenance of the data: patent US20230212549A1

Measurement Context: 24 h incubation, 37° C.
Readout Kind: % intact compound remaining after incubation, Human plasma

Compound	Assay Value
CCCC[C@H](NC(=O)CCC(=O)NCCCOCCOCCOCCCNC(=O)CN1CCN(CC(=O)O)CCN(CC(=O)O)CCN(CC(=O)O)CC1)C(=O)N[C@H]1CSCc2cccc(c2)CSC[C@@H](C(=O)NCCC(=O)O)NC(=O)[C@H](Cc2ccccc2)NC(=O)[C@H](CCC(N)=O)NC(=O)[C@H]([C@@H](C)O)NC(=O)[C@@H]2CCCN2C(=O)[C@@H]2CCCN2C1=O [3BP-3398]	99% (24 h)

---

Test Name: in vivo
Measurement Context: swiss nude, mouse, tumor, iv
Numbered stars: 1 amine (or outer) side, 2 acyl side, 3 side chain; on linkers, the order of the positions; unused ones are H or OH. Bridge positions count the residues as written; N and C are the ends. Square brackets hold non-standard residues; d marks the D form. Peptide text beside a SMILES is read from it. * marks the point of attachment. X1 = NCCNCC(CNCCN)C(=O)N1CCN(CC(=O)NCCCOCCOCCOCCCN*)CC1; mXylylene = c1cc(C[*:1])cc(C[*:2])c1; Suc = O=C(CCC(=O)[*:2])[*:1]; Nle = CCCC[C@H](N)C(=O)O; βAla = NCCC(=O)O
tissue uptake at 6 h values for the molecules below.

Molecule	tissue uptake at 6 h (%ID/g)
CCCC[C@H](NC(=O)CCC(=O)NCCCOCCOCCOCCCNC(=O)CN1CCN(C(=O)C(CNCCN)CNCCN)CC1)C(=O)N[C@H]1CSCc2cccc(c2)CSC[C@@H](C(=O)NCCC(=O)O)NC(=O)[C@H](Cc2ccccc2)NC(=O)[C@H](CCC(=O)O)NC(=O)[C@H]([C@@H](C)O)NC(=O)[C@@H]2CCCN2C(=O)[C@@H]2CCCN2C1=O [3BP-4784] ({X1-Suc}-[Nle]CPPTEFC[βAla]-OH; linker 2-8 via mXylylene)	7.44
CCCC[C@H](NC(=O)CCC(=O)NCCCOCCOCCOCCCNC(=O)CN1CCN(C(=O)C(CNCCN)CNCCN)CC1)C(=O)N[C@H]1CSCc2cccc(c2)CSCC(C(=O)O)NC(=O)[C@H](Cc2ccccc2)NC(=O)[C@H](CCC(N)=O)NC(=O)[C@H]([C@@H](C)O)NC(=O)[C@@H]2CCCN2C(=O)[C@@H]2CCCN2C1=O (stereo partly drawn)	7.48
CCCC[C@H](NC(=O)CCC(=O)NCCCOCCOCCOCCCNC(=O)CCOCCOCCOCCOCCOCCOCCNC(=O)C(CNCCN)CNCCN)C(=O)N[C@H]1CSCc2cccc(c2)CSCC(C(=O)O)NC(=O)[C@H](Cc2ccccc2)NC(=O)[C@H](CCC(N)=O)NC(=O)[C@H]([C@@H](C)O)NC(=O)[C@@H]2CCCN2C(=O)[C@@H]2CCCN2C1=O (stereo partly drawn)	5.21

---

Test Name: Pharmacokinetic study in rats (plasma, NCA)
Measurement Context: rat, intravenous, 400 nmol/kg

Given Smiles	AUC(0-inf) / µM·h
CCCCCC(=O)N[C@H]1CSCc2cc(CSCCNC(=O)CN3CCN(CC(=O)O)CCN(CC(=O)O)CCN(CC(=O)O)CC3)cc(c2)CSC[C@@H](C(=O)O)NC(=O)[C@H](Cc2ccccc2)NC(=O)[C@H](CCC(N)=O)NC(=O)[C@H]([C@@H](C)O)NC(=O)[C@@H]2CCCN2C(=O)[C@@H]2CCCN2C1=O	0.738

---

Test Target: alpha 1A (h) (Homo sapiens, UniProt P35348)
Sequence (P35348 whole entry): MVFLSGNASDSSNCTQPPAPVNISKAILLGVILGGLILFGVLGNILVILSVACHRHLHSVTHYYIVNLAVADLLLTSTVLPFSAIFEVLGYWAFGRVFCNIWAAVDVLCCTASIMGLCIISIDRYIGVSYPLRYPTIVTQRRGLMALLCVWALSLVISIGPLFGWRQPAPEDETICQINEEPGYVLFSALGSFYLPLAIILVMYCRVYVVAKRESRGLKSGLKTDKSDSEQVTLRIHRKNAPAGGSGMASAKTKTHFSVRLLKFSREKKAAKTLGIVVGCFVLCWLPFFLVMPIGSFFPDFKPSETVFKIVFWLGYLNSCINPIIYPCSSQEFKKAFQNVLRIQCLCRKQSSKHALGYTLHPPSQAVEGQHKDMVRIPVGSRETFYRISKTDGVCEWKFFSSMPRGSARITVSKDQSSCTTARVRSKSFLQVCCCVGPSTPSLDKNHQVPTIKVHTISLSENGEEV
pKi: −log10 of the molar value.
Readout Kind: pKi

>>> print(df.to_string())
                                   compound  assay_value
0  COc1cccc(OC)c1OCCNCC1COc2ccccc2O1 (stereo not shown)         9.62

---

Test Name: Pharmacokinetic study in mice (plasma, NCA)
Measurement Context: mouse, intravenous, 400 nmol/kg
Readout Kind: half-life (min)

Compound	Readout Kind	Assay Value
CCCCCC(=O)N[C@H]1CSCc2cc(CSCCNC(=O)CN3CCN(CC(=O)O)CCN(CC(=O)O)CCN(CC(=O)O)CC3)cc(c2)CSC[C@@H](C(=O)O)NC(=O)[C@H](Cc2ccccc2)NC(=O)[C@H](CCC(N)=O)NC(=O)[C@H]([C@@H](C)O)NC(=O)[C@@H]2CCCN2C(=O)[C@@H]2CCCN2C1=O [3BP-3623]	half-life	35

---

Test Name: in vivo
Measurement Context: swiss nude, mouse, kidneys, iv
Numbered stars: 1 amine (or outer) side, 2 acyl side, 3 side chain; on linkers, the order of the positions; unused ones are H or OH. Bridge positions count the residues as written; N and C are the ends. Square brackets hold non-standard residues; d marks the D form. Peptide text beside a SMILES is read from it. * marks the point of attachment. ξ: configuration not given here. Pyridine(3,5-bisCH2) = c1ncc(C[*:2])cc1C[*:1]; PEG6 = NCCOCCOCCOCCOCCOCCOCCC(=O)O; Nle = CCCC[C@H](N)C(=O)O; X2 = NCCNCC(CNCCN)C(=O)*; ξC = NC(CS)C(=O)O

Compound	Unit Info	tissue uptake at 3 h
CCCC[C@H](NC(=O)CCC(=O)NCCCOCCOCCOCCCNC(=O)CN1CCN(C(=O)C(CNCCN)CNCCN)CC1)C(=O)N[C@H]1CSCc2cncc(c2)CSC[C@@H](C(=O)NCCC(=O)O)NC(=O)[C@H](Cc2ccccc2)NC(=O)[C@H](CCC(N)=O)NC(=O)[C@H]([C@@H](C)O)NC(=O)[C@@H]2CCCN2C(=O)[C@@H]2CCCN2C1=O	%ID/g	1.12
CCCCNC(=O)N[C@H]1CSCc2cc(CSCCNC(=O)C(CNCCN)CNCCN)cc(c2)CSC[C@@H](C(=O)O)NC(=O)[C@H](Cc2ccccc2)NC(=O)[C@H](CCC(N)=O)NC(=O)[C@H]([C@@H](C)O)NC(=O)[C@@H]2CCCN2C(=O)[C@@H]2CCCN2C1=O	%ID/g	1.4
CCCC[C@H](NC(=O)CCOCCOCCOCCOCCOCCOCCNC(=O)C(CNCCN)CNCCN)C(=O)N[C@H]1CSCc2cncc(c2)CSCC(C(=O)O)NC(=O)[C@H](Cc2ccccc2)NC(=O)[C@H](CCC(=O)O)NC(=O)[C@H]([C@@H](C)O)NC(=O)[C@@H]2CCCN2C(=O)[C@@H]2CCCN2C1=O (stereo partly drawn) [3BP-4773] ({X2-PEG6}-[Nle]CPPTEF[ξC]-OH; linker 2-8 via Pyridine(3,5-bisCH2))	%ID/g	4.71

---

Test Name: Radiochemical purity by HPLC of ^99mTc-labeled compounds
Format: physicochemical
Measurement Context: 99Tc-labeled compounds, (3 h)
Readout Kind: HPLC Area % appr. 4 h post end of synthesis (%)

Compound	Assay Value
CCCCNC(=O)N[C@H]1CSCc2cc(cc(CN3CCN(C(=O)C(CNCCN)CNCCN)CC3)c2)CSC[C@@H](C(=O)O)NC(=O)[C@H](Cc2ccccc2)NC(=O)[C@H](CCC(N)=O)NC(=O)[C@H]([C@@H](C)O)NC(=O)[C@@H]2CCCN2C(=O)[C@@H]2CCCN2C1=O [3BP-4533]	98.2
CCCC[C@H](NC(=O)CCC(=O)NCCCOCCOCCOCCCNC(=O)C(CNCCN)CNCCN)C(=O)N[C@H]1CSCc2cncc(c2)CSCC(C(=O)O)NC(=O)[C@H](Cc2ccccc2)NC(=O)[C@H](CCC(N)=O)NC(=O)[C@H]([C@@H](C)O)NC(=O)[C@@H]2CCCN2C(=O)[C@@H]2CCCN2C1=O (stereo partly shown) [3BP-4549]	97.6
CCCCNC(=O)N[C@H]1CSCc2cc(CSCCNC(=O)C(CNCCN)CNCCN)cc(c2)CSC[C@@H](C(=O)O)NC(=O)[C@H](Cc2ccccc2)NC(=O)[C@H](CCC(N)=O)NC(=O)[C@H]([C@@H](C)O)NC(=O)[C@@H]2CCCN2C(=O)[C@@H]2CCCN2C1=O [3BP-4534]	97.5
CCCC[C@H](NC(=O)CCOCCOCCOCCOCCOCCOCCNC(=O)C(CNCCN)CNCCN)C(=O)N[C@H]1CSCc2cncc(c2)CSCC(C(=O)O)NC(=O)[C@H](Cc2ccccc2)NC(=O)[C@H](CCC(N)=O)NC(=O)[C@H]([C@@H](C)O)NC(=O)[C@@H]2CCCN2C(=O)[C@@H]2CCCN2C1=O (stereo partly shown) [3BP-4550]	98.0

---

Test Name: in vivo
Measurement Context: swiss nude, mouse, tumor, iv
Numbered stars: 1 amine (or outer) side, 2 acyl side, 3 side chain; on linkers, the order of the positions; unused ones are H or OH. Bridge positions count the residues as written; N and C are the ends. Square brackets hold non-standard residues; d marks the D form. Peptide text beside a SMILES is read from it. * marks the point of attachment. ξ: configuration not given here. X1 = NCCNCC(CNCCN)C(=O)N1CCN(CC(=O)NCCCOCCOCCOCCCN*)CC1; Pyridine(3,5-bisCH2) = c1ncc(C[*:2])cc1C[*:1]; mXylylene = c1cc(C[*:1])cc(C[*:2])c1; PEG6 = NCCOCCOCCOCCOCCOCCOCCC(=O)O; Suc = O=C(CCC(=O)[*:2])[*:1]; Nle = CCCC[C@H](N)C(=O)O; X2 = NCCNCC(CNCCN)C(=O)*; ξC = NC(CS)C(=O)O
Readout Kind: tissue uptake at 3 h (%ID/g)

Molecule	Readout Kind	Unit Info	Assay Value
CCCC[C@H](NC(=O)CCOCCOCCOCCOCCOCCOCCNC(=O)C(CNCCN)CNCCN)C(=O)N[C@H]1CSCc2cncc(c2)CSCC(C(=O)O)NC(=O)[C@H](Cc2ccccc2)NC(=O)[C@H](CCC(=O)O)NC(=O)[C@H]([C@@H](C)O)NC(=O)[C@@H]2CCCN2C(=O)[C@@H]2CCCN2C1=O (some centres unmarked) [3BP-4773] ({X2-PEG6}-[Nle]CPPTEF[ξC]-OH; linker 2-8 via Pyridine(3,5-bisCH2))	tissue uptake at 3 h	%ID/g	6.19
CCCC[C@H](NC(=O)CCC(=O)NCCCOCCOCCOCCCNC(=O)CN1CCN(C(=O)C(CNCCN)CNCCN)CC1)C(=O)N[C@H]1CSCc2cccc(c2)CSC[C@@H](C(=O)N[C@@H](CC(=O)O)C(=O)O)NC(=O)[C@H](Cc2ccccc2)NC(=O)[C@H](CCC(=O)O)NC(=O)[C@H]([C@@H](C)O)NC(=O)[C@@H]2CCCN2C(=O)[C@@H]2CCCN2C1=O [3BP-4785] ({X1-Suc}-[Nle]CPPTEFCD-OH; linker 2-8 via mXylylene)	tissue uptake at 3 h	%ID/g	4.14
